Field: viability at 24 h, 0.28 μM. Provide a value for each of the compounds that follow.
Assay: In vitro cytotoxicity assay (MTT)
Type: cell-based, mouse
Details: mouse, RAW264.7 cells, conc. 0.28 μM; read-out: cell viability relative to 0 μM (fig. S5e)
Answers are plain numbers, in %.

Batch: viability at 24 h, 0.28 μM for all items listed.
1. CCOC(=O)c1sc(NC(=O)/C(=N/Nc2ccc(O)cc2C(=O)O)C(C)=O)nc1C
2. CCOC(=O)c1sc(NC(=O)/C(=N/Nc2ccccc2C(=O)O)C(C)=O)nc1C

[118, 107]
